B1: library; numbered along this chain (parent)
chain: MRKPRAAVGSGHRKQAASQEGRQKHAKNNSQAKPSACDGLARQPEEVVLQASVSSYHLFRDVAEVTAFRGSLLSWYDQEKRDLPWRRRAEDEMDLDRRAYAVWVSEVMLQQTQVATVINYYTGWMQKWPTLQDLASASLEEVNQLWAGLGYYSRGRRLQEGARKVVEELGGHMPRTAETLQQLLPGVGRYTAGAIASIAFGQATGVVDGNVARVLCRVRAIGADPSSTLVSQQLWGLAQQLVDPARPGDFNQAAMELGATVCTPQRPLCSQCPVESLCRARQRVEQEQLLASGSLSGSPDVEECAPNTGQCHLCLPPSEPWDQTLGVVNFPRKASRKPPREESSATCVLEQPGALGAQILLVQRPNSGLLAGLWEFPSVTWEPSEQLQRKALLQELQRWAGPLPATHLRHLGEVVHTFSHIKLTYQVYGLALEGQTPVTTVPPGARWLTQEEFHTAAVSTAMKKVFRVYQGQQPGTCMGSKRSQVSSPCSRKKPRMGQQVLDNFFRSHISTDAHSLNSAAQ

Variants of: B1
METHOD: 8OG:A repair function score (normalized; synonymous = 0, nonsense = -1) (normalized log-likelihood score); higher = more repair activity (WT-like);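 note: cells sorted at 72 h after reporter transfection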
COND: with 8OG:A DNA repair reporter (GFP) in HEK-293 MUTYH KO cells
# if value of 8OG:A repair function score reaches -0.06, tag Met; if it stays below, tag Not met

Prompt line: Say whether A513K shows 8OG:A repair function score of -0.06 or more.
Response line: Met

Prompt line: Say whether T204L shows 8OG:A repair function score of -0.06 or more.
Response line: Not met

Prompt line: Say whether R389D shows 8OG:A repair function score of -0.06 or more.
Response line: Not met

Prompt line: Say whether H407I shows 8OG:A repair function score of -0.06 or more.
Response line: Met

Prompt line: Say whether G186W shows 8OG:A repair function score of -0.06 or more.
Response line: Not met

Prompt line: Say whether R69A shows 8OG:A repair function score of -0.06 or more.
Response line: Not met

Prompt line: Say whether A254Q shows 8OG:A repair function score of -0.06 or more.
Response line: Not met

Prompt line: Say whether A254W shows 8OG:A repair function score of -0.06 or more.
Response line: Not met

Prompt line: Say whether N517M shows 8OG:A repair function score of -0.06 or more.
Response line: Met

Prompt line: Say whether V427S shows 8OG:A repair function score of -0.06 or more.
Response line: Not met

Prompt line: Say whether P34H shows 8OG:A repair function score of -0.06 or more.
Response line: Met

Prompt line: Say whether G372C shows 8OG:A repair function score of -0.06 or more.
Response line: Not met

Prompt line: Say whether I509N shows 8OG:A repair function score of -0.06 or more.
Response line: Met

Prompt line: Say whether P488C shows 8OG:A repair function score of -0.06 or more.
Response line: Met

Prompt line: Say whether L134V shows 8OG:A repair function score of -0.06 or more.
Response line: Met

Prompt line: Say whether N143G shows 8OG:A repair function score of -0.06 or more.
Response line: Not met

Prompt line: Say whether T380Y shows 8OG:A repair function score of -0.06 or more.
Response line: Met

Prompt line: Say whether R81A shows 8OG:A repair function score of -0.06 or more.
Response line: Not met

Prompt line: Say whether E302V shows 8OG:A repair function score of -0.06 or more.
Response line: Not met

Prompt line: Say whether L370Y shows 8OG:A repair function score of -0.06 or more.
Response line: Not met

Prompt line: Say whether R156D shows 8OG:A repair function score of -0.06 or more.
Response line: Not met

Prompt line: Say whether G475E shows 8OG:A repair function score of -0.06 or more.
Response line: Met

Prompt line: Say whether A194G shows 8OG:A repair function score of -0.06 or more.
Response line: Not met

Prompt line: Say whether V117D shows 8OG:A repair function score of -0.06 or more.
Response line: Not met

Prompt line: Say whether A67Q shows 8OG:A repair function score of -0.06 or more.
Response line: Not met

Prompt line: Say whether I118P shows 8OG:A repair function score of -0.06 or more.
Response line: Not met

Prompt line: Say whether D96E shows 8OG:A repair function score of -0.06 or more.
Response line: Not met

Prompt line: Say whether R364L shows 8OG:A repair function score of -0.06 or more.
Response line: Not met

Prompt line: Say whether A238Q shows 8OG:A repair function score of -0.06 or more.
Response line: Not met

Prompt line: Say whether L83S shows 8OG:A repair function score of -0.06 or more.
Response line: Not met

Prompt line: Say whether L349Y shows 8OG:A repair function score of -0.06 or more.
Response line: Not met

Prompt line: Say whether G209N shows 8OG:A repair function score of -0.06 or more.
Response line: Met

Prompt line: Say whether Q265Y shows 8OG:A repair function score of -0.06 or more.
Response line: Met

Prompt line: Say whether P383G shows 8OG:A repair function score of -0.06 or more.
Response line: Not met

Prompt line: Say whether W146Y shows 8OG:A repair function score of -0.06 or more.
Response line: Not met

Prompt line: Say whether W75S shows 8OG:A repair function score of -0.06 or more.
Response line: Not met

Prompt line: Say whether E45M shows 8OG:A repair function score of -0.06 or more.
Response line: Met

Prompt line: Say whether Q435G shows 8OG:A repair function score of -0.06 or more.
Response line: Met

Prompt line: Say whether T406I shows 8OG:A repair function score of -0.06 or more.
Response line: Met

Prompt line: Say whether A520Y shows 8OG:A repair function score of -0.06 or more.
Response line: Met

Prompt line: Say whether Y76S shows 8OG:A repair function score of -0.06 or more.
Response line: Not met

Prompt line: Say whether M108P shows 8OG:A repair function score of -0.06 or more.
Response line: Not met

Prompt line: Say whether G123C shows 8OG:A repair function score of -0.06 or more.
Response line: Met

Prompt line: Say whether G297M shows 8OG:A repair function score of -0.06 or more.
Response line: Met

Prompt line: Say whether V107I shows 8OG:A repair function score of -0.06 or more.
Response line: Met
